Cited source for all entries: patent US6372446B1

# Test system: Aureobasidium pullulans (QM 3092)
# assay.info: Screening of fungi for enzyme activity with 4-methylumbelliferone-labelled substrates
# Format: cell-based
# experimental.conditions: Aureobasidium pulluians (QM 3092); vegetable juice medium; substrate 10 μM, 25° C., pH 5
readout.name: Enzyme activity: amount of released 4-methylumbelliferone during 5 hours of incubation

Completed entries (count: 5):
# compound, result
rows = [
    ("CC(=O)N[C@H]1[C@@H](Oc2ccc3c(C)cc(=O)oc3c2)O[C@H](CO)[C@@H](O)[C@@H]1O [substrate 2]", "0 µmol"),
    ("Cc1cc(=O)oc2cc(O[C@@H]3O[C@H](CO)[C@@H](O)[C@H](O)[C@@H]3O)ccc12 [substrate 6, 4-methylumbelliferyl β-D-mannopyranoside]", "** (1 ≦ ** 2)"),
    ("CC(=O)N[C@H]1[C@H](Oc2ccc3c(C)cc(=O)oc3c2)O[C@H](CO)[C@@H](O)[C@@H]1O [substrate 3]", "*** (2 ≦ ***)"),
    ("CC(=O)N[C@H]1[C@H](Oc2ccc3c(C)cc(=O)oc3c2)O[C@H](CO)[C@@H](O[C@@H]2O[C@H](CO)[C@@H](O[C@@H]3O[C@H](CO)[C@@H](O)[C@H](O)[C@H]3NC(C)=O)[C@H](O)[C@H]2NC(C)=O)[C@@H]1O [substrate 4]", "*** (2 ≦ ***)"),
    ("Cc1cc(=O)oc2cc(O[C@H]3O[C@H](C)[C@H](O)[C@H](O)[C@H]3O)ccc12 [substrate 10, 4-methylumbelliferyl α-D-fucoside]", "0 µmol"),
]

Please indicate Enzyme activity: amount of released 4-methylumbelliferone during 5 hours of incubation recorded for Cc1cc(=O)oc2cc(O[C@@H]3O[C@H](C)[C@H](O)[C@H](O)[C@H]3O)ccc12 [substrate 11, 4-methylumbelliferyl β-D-fucoside]
0 µmol

Please indicate Enzyme activity: amount of released 4-methylumbelliferone during 5 hours of incubation recorded for Cc1cc(=O)oc2cc(O[C@@H]3OC[C@@H](O)[C@H](O)[C@H]3O)ccc12 [substrate 9, 4-methylumbelliferyl β-D-xyloside]
*** (2 ≦ ***)

Please indicate Enzyme activity: amount of released 4-methylumbelliferone during 5 hours of incubation recorded for Cc1cc(=O)oc2cc(OC3OC(CO)C(O)C(O)C3O)ccc12 [substrate 5, 4-methylumbelliferyl α-D-mannopyranoside]
** (1 ≦ ** 2)

====

Reported Enzyme activity: amount of released 4-methylumbelliferone during 5 hours of incubation is given for each of the following compounds.
# Tested on: Eurotium sp. (AAS 36)
# assay.info: Screening of fungi for enzyme activity with 4-methylumbelliferone-labelled substrates
# Type: cell-based
# experimental.conditions: vegetable juice medium, substrate 10 μM, 25° C., pH 5
Form entry: value (µmol) — number only.

# compound, target.entity, endpoint.unit, numeric.result
rows = [
    ("Cc1cc(=O)oc2cc(O[C@@H]3O[C@H](CO)[C@@H](O)[C@H](O)[C@@H]3O)ccc12 [substrate 6, 4-methylumbelliferyl β-D-mannopyranoside]", "Eurotium sp. (AAS 36)", "µmol", 0),
    ("Cc1cc(=O)oc2cc(O[C@H]3O[C@H](CO)[C@@H](O)[C@H](O)[C@H]3O)ccc12 [substrate 7, 4-methylumbelliferyl α-D-glucoside]", "Eurotium sp. (AAS 36)", "µmol", 0),
    ("Cc1cc(=O)oc2cc(O[C@@H]3OC[C@@H](O)[C@H](O)[C@H]3O)ccc12 [substrate 9, 4-methylumbelliferyl β-D-xyloside]", "Eurotium sp. (AAS 36)", "µmol", 0),
]

Please indicate Enzyme activity: amount of released 4-methylumbelliferone during 5 hours of incubation recorded for Cc1cc(=O)oc2cc(O[C@H]3O[C@H](C)[C@H](O)[C@H](O)[C@H]3O)ccc12 [substrate 10, 4-methylumbelliferyl α-D-fucoside]
0

Please indicate Enzyme activity: amount of released 4-methylumbelliferone during 5 hours of incubation recorded for CC(=O)N[C@H]1[C@@H](Oc2ccc3c(C)cc(=O)oc3c2)O[C@H](CO)[C@@H](O)[C@@H]1O [substrate 2]
0

====

# Test system: Mucor racemosus (AAS 310)
# assay.info: Screening of fungi for enzyme activity with 4-methylumbelliferone-labelled substrates
# Assay type: cell-based
# experimental.conditions: vegetable juice medium, substrate 10 μM, 25° C., pH 5
readout.name: Enzyme activity: amount of released 4-methylumbelliferone during 5 hours of incubation

Completed entries (count: 4):
# compound, result
records = [
    ("CC(=O)N[C@H]1[C@H](Oc2ccc3c(C)cc(=O)oc3c2)O[C@H](CO)[C@@H](O[C@@H]2O[C@H](CO)[C@@H](O[C@@H]3O[C@H](CO)[C@@H](O)[C@H](O)[C@H]3NC(C)=O)[C@H](O)[C@H]2NC(C)=O)[C@@H]1O [substrate 4]", "*** (2 ≦ ***)"),
    ("Cc1cc(=O)oc2cc(O[C@H]3O[C@H](CO)[C@@H](O)[C@H](O)[C@H]3O)ccc12 [substrate 7, 4-methylumbelliferyl α-D-glucoside]", "0 µmol"),
    ("Cc1cc(=O)oc2cc(O[C@@H]3O[C@H](CO)[C@@H](O[C@@H]4O[C@H](CO)[C@H](O)[C@H](O)[C@H]4O)[C@H](O)[C@H]3O)ccc12 [substrate 8, 4-methylumbelliferyl β-D-lactoside]", "0 µmol"),
    ("CC(=O)N[C@H]1[C@H](Oc2ccc3c(C)cc(=O)oc3c2)O[C@H](CO)[C@@H](O)[C@@H]1O [substrate 3]", "*** (2 ≦ ***)"),
]

Here is another compound to look at.
Answer with Enzyme activity: amount of released 4-methylumbelliferone during 5 hours of incubation of CC(=O)N[C@H]1[C@@H](Oc2ccc3c(C)cc(=O)oc3c2)O[C@H](CO)[C@@H](O)[C@@H]1O [substrate 2] measured for Mucor racemosus (AAS 310).
0 µmol

====

Reported Enzyme activity: amount of released 4-methylumbelliferone during 5 hours of incubation is given for each of the following compounds.
# System: Penicillium commune (IBT 13713)
# assay.info: Screening of fungi for enzyme activity with 4-methylumbelliferone-labelled substrates
# Type: cell-based
# experimental.conditions: vegetable juice medium, substrate 10 μM, 25° C., pH 5
Form entry: value (µmol) — number only.

Completed entries (count: 3):
# compound, endpoint.unit, numeric.result
records = [
    ("Cc1cc(=O)oc2cc(O[C@H]3O[C@H](CO)[C@@H](O)[C@H](O)[C@H]3O)ccc12 [substrate 7, 4-methylumbelliferyl α-D-glucoside]", "µmol", 0),
    ("Cc1cc(=O)oc2cc(O[C@H]3O[C@H](C)[C@H](O)[C@H](O)[C@H]3O)ccc12 [substrate 10, 4-methylumbelliferyl α-D-fucoside]", "µmol", 0),
    ("CC(=O)N[C@H]1[C@H](Oc2ccc3c(C)cc(=O)oc3c2)O[C@H](COS(=O)(=O)O)[C@@H](O)[C@@H]1O [substrate 1]", "µmol", 0),
]

Here is another compound to look at.
Please indicate Enzyme activity: amount of released 4-methylumbelliferone during 5 hours of incubation recorded for Cc1cc(=O)oc2cc(O[C@@H]3O[C@H](C)[C@H](O)[C@H](O)[C@H]3O)ccc12 [substrate 11, 4-methylumbelliferyl β-D-fucoside]
0

====

Reported Enzyme activity: amount of released 4-methylumbelliferone is given for each of the following compounds.
# Tested on: Penicillium solitum (IBT 13771)
# assay.info: Screening of fungi for enzyme activity with 4-methylumbelliferone-labelled substrates
# Type: cell-based
# experimental.conditions: mineral medium, substrate 10 μM, 25° C., pH 5
Form entry: value (µmol) — number only.

Completed entries (count: 2):
# compound, target.entity, numeric.result
data = [
    ("CC(=O)N[C@H]1[C@@H](Oc2ccc3c(C)cc(=O)oc3c2)O[C@H](CO)[C@@H](O)[C@@H]1O [substrate 2]", "Penicillium solitum (IBT 13771)", 0),
    ("CC(=O)N[C@H]1[C@H](Oc2ccc3c(C)cc(=O)oc3c2)O[C@H](COS(=O)(=O)O)[C@@H](O)[C@@H]1O [substrate 1]", "Penicillium solitum (IBT 13771)", 0),
]

Here is another compound to look at.
Answer with Enzyme activity: amount of released 4-methylumbelliferone of Cc1cc(=O)oc2cc(O[C@H]3O[C@H](C)[C@H](O)[C@H](O)[C@H]3O)ccc12 [substrate 10, 4-methylumbelliferyl α-D-fucoside] measured for Penicillium solitum (IBT 13771).
0

====

# Tested on: Schizophyllum commune (AGM 25)
# assay.info: Screening of fungi for enzyme activity with 4-methylumbelliferone-labelled substrates
# Type: cell-based
# experimental.conditions: vegetable juice medium, substrate 10 μM, 25° C., pH 5
readout.name: Enzyme activity: amount of released 4-methylumbelliferone during 5 hours of incubation (µmol)
Form entry: value (µmol) — number only.

# molecule, endpoint.unit, numeric.result
measured = [
    ("CC(=O)N[C@H]1[C@@H](Oc2ccc3c(C)cc(=O)oc3c2)O[C@H](CO)[C@@H](O)[C@@H]1O [substrate 2]", "µmol", 0),
]

Please indicate Enzyme activity: amount of released 4-methylumbelliferone during 5 hours of incubation recorded for Cc1cc(=O)oc2cc(O[C@@H]3O[C@H](C)[C@H](O)[C@H](O)[C@H]3O)ccc12 [substrate 11, 4-methylumbelliferyl β-D-fucoside]
0
